// data source = paper PMC3234597

target.under.test: human ERα (full-length) (Homo sapiens, UniProt P03372, G400V)
Sequence (P03372 1-595 G400V): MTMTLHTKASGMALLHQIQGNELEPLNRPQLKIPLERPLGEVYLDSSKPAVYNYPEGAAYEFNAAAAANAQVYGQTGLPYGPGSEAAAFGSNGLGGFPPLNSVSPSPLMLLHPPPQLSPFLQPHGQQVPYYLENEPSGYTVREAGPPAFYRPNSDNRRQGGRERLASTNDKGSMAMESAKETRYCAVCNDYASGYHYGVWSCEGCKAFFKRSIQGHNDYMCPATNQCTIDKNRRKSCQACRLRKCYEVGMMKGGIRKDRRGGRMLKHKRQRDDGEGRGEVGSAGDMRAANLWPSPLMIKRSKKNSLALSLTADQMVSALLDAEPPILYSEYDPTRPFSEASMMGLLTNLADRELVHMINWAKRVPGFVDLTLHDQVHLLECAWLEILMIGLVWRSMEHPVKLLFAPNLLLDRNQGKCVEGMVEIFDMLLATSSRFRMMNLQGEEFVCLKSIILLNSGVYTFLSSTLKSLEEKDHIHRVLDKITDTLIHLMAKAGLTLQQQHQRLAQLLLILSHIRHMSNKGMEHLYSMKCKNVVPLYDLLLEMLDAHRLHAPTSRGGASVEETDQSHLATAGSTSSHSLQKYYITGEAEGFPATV
protocol.description: U2OS-ERα/3xERE luciferase reporter cell line (full-length receptor)
Format: cell-based
assay.endpoint: EC50

Study these solved cases before continuing.
• C#C[C@]1(O)CC[C@H]2[C@@H]3CCC4=Cc5oncc5C[C@]4(C)[C@H]3CC[C@@]21C = 4.37 µM
• CC(C)C(=O)Nc1ccc([N+](=O)[O-])c(C(F)(F)F)c1 [Flutamide, flutamide] = > 10 µM
• C[C@]12CCC(=O)C=C1CC[C@@H]1[C@@H]2[C@@H](O)C[C@]2(C=O)[C@@H](C(=O)CO)CC[C@@H]12 = > 10 µM

Tested on human ERα (full-length) (Homo sapiens, UniProt P03372, G400V): CCC(=O)[C@@]1(C)CC[C@H]2[C@@H]3CCC4=CC(=O)CCC4=C3CC[C@@]21C [Promegestone (R5020), promegestone] . Observed EC50: > 10 µM

Observed EC50 on human ERα (full-length) (Homo sapiens, UniProt P03372, G400V), entry `C[C@]12C=CC(=O)C=C1CC[C@H]1[C@@H]3C[C@@H](O)[C@](O)(C(=O)CO)[C@@]3(C)C[C@H](O)[C@@]12F` , equals > 10 µM

Observed EC50, human ERα (full-length) (Homo sapiens, UniProt P03372, G400V), `CCCc1c(-c2ccc(O)cc2)nn(-c2ccc(O)cc2)c1-c1ccc(O)cc1` : 0.0017 µM

Lab entry: human ERα (full-length) (Homo sapiens, UniProt P03372, G400V) assay, molecule `C[C@]12C[C@H](O)[C@H]3[C@@H](CCC4=CC(=O)CC[C@@]43C)[C@@H]1CC[C@@H]2C(=O)CO` , EC50 = > 10 µM

###

Entries and their EC50 values follow.
target.under.test: MR-LBD fused to Gal4-DBD (Homo sapiens, UniProt P08235)
Construct: MR-LBD was cloned by RT-PCR from total RNA isolated from HEK293 cells; expressed in transfected cells; host or cells: U2OS
Sequence (P08235 726-964 limits assumed): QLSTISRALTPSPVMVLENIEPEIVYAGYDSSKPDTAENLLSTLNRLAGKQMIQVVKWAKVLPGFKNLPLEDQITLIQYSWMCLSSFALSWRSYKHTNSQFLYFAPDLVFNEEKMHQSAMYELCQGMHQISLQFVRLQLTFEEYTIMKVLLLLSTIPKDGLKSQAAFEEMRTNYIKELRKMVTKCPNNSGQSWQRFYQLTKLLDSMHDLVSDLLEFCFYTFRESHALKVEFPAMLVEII
protocol.description: U2OS-MR-LBD/9xGal4UAS luciferase reporter cell line
Assay type: cell-based
measurement.context: read-out: Log EC50 (converted)

* CC(=O)O[C@]1(C(C)=O)CC[C@H]2[C@@H]3C=C(Cl)C4=CC(=O)[C@@H]5C[C@@H]5[C@]4(C)[C@H]3CC[C@@]21C [Cyproterone acetate, cyproterone acetate] | > 10 µM
* CC(C)C(=O)Nc1ccc([N+](=O)[O-])c(C(F)(F)F)c1 [Flutamide, flutamide] | > 10 µM
* CC/C(=C(/CC)c1ccc(O)cc1)c1ccc(O)cc1 [DES, Diethylstilbestrol] | > 10 µM
* CCCc1c(-c2ccc(O)cc2)nn(-c2ccc(O)cc2)c1-c1ccc(O)cc1 [PPT, propyl pyrazole triol] | > 10 µM
* CCC(=O)[C@@]1(C)CC[C@H]2[C@@H]3CCC4=CC(=O)CCC4=C3CC[C@@]21C [Promegestone (R5020), promegestone] | > 10 µM

Item: C[C@]12CCC(=O)C=C1CC[C@@H]1[C@@H]2[C@@H](O)C[C@@]2(C)[C@H]1CC[C@]2(O)C(=O)CO [Cortisol, cortisol] | EC50: 0.0112 µM

###

target.under.test: PR-LBD fused to Gal4-DBD (Homo sapiens)
Construct: PR-LBD region was PCR amplified using the following primer combination; host or cells: U2OS
Sequence (P06401 679-913 limits assumed): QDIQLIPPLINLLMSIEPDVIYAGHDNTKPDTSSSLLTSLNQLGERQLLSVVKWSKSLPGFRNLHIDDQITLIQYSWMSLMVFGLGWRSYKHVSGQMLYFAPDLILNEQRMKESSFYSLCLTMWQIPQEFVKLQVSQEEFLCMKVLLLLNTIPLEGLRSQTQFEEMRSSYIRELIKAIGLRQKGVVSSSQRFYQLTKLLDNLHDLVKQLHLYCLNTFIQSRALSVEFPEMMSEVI
protocol.description: U2OS-PR-LBD/9xGal4UAS luciferase reporter cell line
Assay type: cell-based
This listing pairs compounds with measured pEC50.
Lab note — pEC50 values are minus log10 of concentrations in M.

pEC50 recorded for this compound, C[C@]12CCC(=O)C[C@@H]1CC[C@@H]1[C@@H]2CC[C@]2(C)[C@@H](O)CC[C@@H]12 [Dihydrotestosterone, 5α-androstan-17β-ol-3-one] , is 6.40

// `C[C@]12CC[C@H]3[C@@H](CCC4=CC(=O)CC[C@@]43C)[C@@H]1CC[C@@H]2O` : pEC50 value = 7.33

###

target.under.test: PR-LBD fused to Gal4-DBD (Homo sapiens, UniProt P06401)
Construct: PR-LBD region was PCR amplified using the following primer combination; host or cells: U2OS
protocol.description: U2OS-PR-LBD/9xGal4UAS luciferase reporter cell line
Format: cell-based
measurement.context: read-out: Log EC50 (converted)
Recorded log10(EC50) values for a group of molecules are listed next.
Scale: decimal log of EC50, EC50 in nM.

* C#C[C@]1(O)CC[C@H]2[C@@H]3CCC4=Cc5oncc5C[C@]4(C)[C@H]3CC[C@@]21C [Danazol, danazol] | 1.96
* CCCc1c(-c2ccc(O)cc2)nn(-c2ccc(O)cc2)c1-c1ccc(O)cc1 [PPT, propyl pyrazole triol] | 3.63
* CCC(=O)[C@@]1(C)CC[C@H]2[C@@H]3CCC4=CC(=O)CCC4=C3CC[C@@]21C [Promegestone (R5020), promegestone] | -1.89
* C[C@H]1C[C@H]2[C@@H]3CCC4=CC(=O)C=C[C@]4(C)[C@@]3(F)[C@@H](O)C[C@]2(C)[C@@]1(O)C(=O)CO [Betamethasone, betamethasone] | 3.68

We now examine a further molecule.
C[C@]12C[C@H](O)[C@H]3[C@@H](CCC4=CC(=O)CC[C@@]43C)[C@@H]1CC[C@@H]2C(=O)CO [Corticosterone, corticosterone] yielded log10(EC50) of 1.86

###

target.under.test: human AR (full-length) (Homo sapiens, UniProt P10275)
Construct: expression vectors encoding full-length steroid receptors: pcDNA3-hAR and pcDNA3-hGR
Sequence (P10275 1-920): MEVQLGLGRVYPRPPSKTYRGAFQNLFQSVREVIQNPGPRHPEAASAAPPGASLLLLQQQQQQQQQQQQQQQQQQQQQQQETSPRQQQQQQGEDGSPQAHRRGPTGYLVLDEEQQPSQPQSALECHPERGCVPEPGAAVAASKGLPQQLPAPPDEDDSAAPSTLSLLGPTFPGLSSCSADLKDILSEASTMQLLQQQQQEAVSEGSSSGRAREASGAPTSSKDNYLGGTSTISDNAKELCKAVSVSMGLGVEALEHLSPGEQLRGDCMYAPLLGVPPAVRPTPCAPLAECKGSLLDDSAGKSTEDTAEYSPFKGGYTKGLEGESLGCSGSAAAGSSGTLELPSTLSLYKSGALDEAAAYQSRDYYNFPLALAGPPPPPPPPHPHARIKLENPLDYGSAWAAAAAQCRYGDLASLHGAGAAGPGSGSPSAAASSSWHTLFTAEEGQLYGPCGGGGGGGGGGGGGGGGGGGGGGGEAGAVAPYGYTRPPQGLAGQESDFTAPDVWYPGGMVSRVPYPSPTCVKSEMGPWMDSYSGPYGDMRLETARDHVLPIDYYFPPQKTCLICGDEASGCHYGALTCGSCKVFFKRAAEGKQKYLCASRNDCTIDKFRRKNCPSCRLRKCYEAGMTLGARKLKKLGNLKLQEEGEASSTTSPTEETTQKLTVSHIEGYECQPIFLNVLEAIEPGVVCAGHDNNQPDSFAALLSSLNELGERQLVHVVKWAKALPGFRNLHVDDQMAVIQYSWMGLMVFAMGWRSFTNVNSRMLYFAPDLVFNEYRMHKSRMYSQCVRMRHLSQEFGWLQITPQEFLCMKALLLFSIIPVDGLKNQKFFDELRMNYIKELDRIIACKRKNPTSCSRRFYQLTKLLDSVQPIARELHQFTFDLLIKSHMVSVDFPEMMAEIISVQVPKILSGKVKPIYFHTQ
protocol.description: U2OS-AR/MMTV luciferase reporter cell line (full-length receptor)
assay.endpoint: pIC50
FYI, pIC50 means -log10 of a concentration in mol per litre.

Recorded result, CCC(=O)[C@@]1(C)CC[C@H]2[C@@H]3CCC4=CC(=O)CCC4=C3CC[C@@]21C [Promegestone (R5020), promegestone] , pIC50: 7.90
